Data provenance: paper PMC8763936

System: CYPs 1A2, 2B6, 2C8, 2C9, 2C19 and 2D6 (all tested CYPs but CYP3A4/5)
Test: In vitro CYP inhibition in human liver microsomes, CYPs not named one by one
Type: in vitro ADME
Details: human, read-out: IC50 for the other CYPs tested
pIC50: −log10 of the molar value.
OBSERVABLE: pIC50

What the record says about CN1CCN(c2ccc(C(=O)Nc3n[nH]c4ccc(Cc5cc(F)cc(F)c5)cc34)c(NC3CCOCC3)c2)CC1 : pIC50 is < 5.00

---

Experiment: clinical
Details: human, in vivo, 100 mg
OBSERVABLE: Tmax (h)
One number for each entry, in h.

What the record says about CN1CCN(c2ccc(C(=O)Nc3n[nH]c4ccc(Cc5cc(F)cc(F)c5)cc34)c(NC3CCOCC3)c2)CC1 [Entrectinib] : Tmax is 2

---

Experiment: Study 1 Cohort 1: single dose entrectinib alone or with itraconazole, plasma pharmacokinetics
Conditions: Entrectinib 100 mg with itraconazole 200 mg QD; geometric mean (geometric CV)
OBSERVABLE: Cmax (nM)
Answers are plain numbers, in nM.

What the record says about O=C(Nc1n[nH]c2ccc(Cc3cc(F)cc(F)c3)cc12)c1ccc(N2CCNCC2)cc1NC1CCOCC1 : Cmax is 31.5

---

Biological target: CYP2B6 (Homo sapiens, UniProt P20813)
Sequence (P20813 whole entry): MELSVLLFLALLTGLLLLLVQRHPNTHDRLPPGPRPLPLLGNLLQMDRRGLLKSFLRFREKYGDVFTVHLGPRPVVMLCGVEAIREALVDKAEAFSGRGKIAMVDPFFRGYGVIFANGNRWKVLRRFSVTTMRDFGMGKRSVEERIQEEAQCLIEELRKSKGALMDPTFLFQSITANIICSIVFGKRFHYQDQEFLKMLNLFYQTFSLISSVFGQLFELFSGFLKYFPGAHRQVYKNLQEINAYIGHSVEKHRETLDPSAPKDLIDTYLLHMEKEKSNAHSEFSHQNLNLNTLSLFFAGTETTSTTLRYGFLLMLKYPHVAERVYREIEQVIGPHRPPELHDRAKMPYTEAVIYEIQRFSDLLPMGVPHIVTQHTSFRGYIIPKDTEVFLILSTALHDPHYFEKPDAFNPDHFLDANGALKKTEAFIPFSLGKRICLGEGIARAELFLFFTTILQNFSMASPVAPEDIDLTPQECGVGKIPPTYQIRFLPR
Test: In vitro CYP inhibition in human liver microsomes
Assay type: in vitro ADME
Parameters: purchased Corning-Gentest
Field: IC50. Provide a value for each of the compounds that follow.

COMPOUND	RESULT
O=C(Nc1n[nH]c2ccc(Cc3cc(F)cc(F)c3)cc12)c1ccc(N2CCNCC2)cc1NC1CCOCC1 [M5]	> 10 µM

Now turn to the next compound.
What the record says about CN1CCN(c2ccc(C(=O)Nc3n[nH]c4ccc(Cc5cc(F)cc(F)c5)cc34)c(NC3CCOCC3)c2)CC1 [Entrectinib] : IC50 is > 10 µM
